Target: Hepatocyte Growth Factor Activator (HGFA) serine protease domain, N-terminal His-tag, recombinant (Homo sapiens (Human)) (UniProt Q04756)
Assay: fluorogenic inhibition assay
pKi: −log10 of the molar value. Non-standard residues stand in square brackets, D forms with d. No end group written: not given here. *: point of attachment. kbt = C-terminal ketobenzothiazole, c1ccc2sc(*)nc2c1; kt = C-terminal ketothiazole, c1csc(*)n1
Give rule met when the value for pKi is at least 7. Give rule not met when it is less.

Q) Could you tell me if the measured pKi of Ac-KRLR-kt (SMILES CC(=O)N[C@@H](CCCCN)C(=O)N[C@@H](CCCNC(=N)N)C(=O)N[C@@H](CC(C)C)C(=O)N[C@@H](CCCNC(=N)N)C(=O)c1nccs1) [Ac-KRLR(SEQ ID NO: 8)-kt] reaches 7 or more?
A) rule met

Q) Could you tell me if the measured pKi of Ac-KRLR (not fully specified (C-terminus); also: benzyl COOH at 3 or 4 (tables differ)) [Ac-KRLR(SEQ ID NO: 8)-kbt-Benzyl-3-COOH] reaches 7 or more?
A) rule met

Q) Could you tell me if the measured pKi of H-[dW]-Leu-Arg-{kbt-OH} [H-dWLR-kbt-COOH] reaches 7 or more?
A) rule not met

Q) Could you tell me if the measured pKi of Ac-SKFR-kt (SMILES CC(=O)N[C@@H](CO)C(=O)N[C@@H](CCCCN)C(=O)N[C@@H](Cc1ccccc1)C(=O)N[C@@H](CCCNC(=N)N)C(=O)c1nccs1) [Ac-SKFR(SEQ ID NO: 13)-kt] reaches 7 or more?
A) rule met
